All values here come from paper PMC7824897.

Listing of entries alongside the reported tissue uptake at 1 h.
Assay: in vivo
Details: female, athymic nude-Foxn1^nu/Foxn1^+, mouse, 20 pmol, total radioactivity, Biodistribution Liver
Where a SMILES comes first, the peptide text is derived from it. Bridges are numbered along the chain shown (N, C = ends). [ ]: non-standard residue; d: D form. The star is where a group is joined. dPhe(4-NHCONH2) = NC(=O)Nc1ccc(C[C@@H](N)C(=O)O)cc1; Phe(4-Cl) = N[C@@H](Cc1ccc(Cl)cc1)C(=O)O; X1 = NCCNCC(CNCCN)C(=O)*

C[C@@H](O)[C@@H]1NC(=O)[C@H](CCCCN)NC(=O)[C@@H](Cc2c[nH]c3ccccc23)NC(=O)[C@H](Cc2ccc(O)cc2)NC(=O)[C@H](NC(=O)[C@H](Cc2ccc(Cl)cc2)NC(=O)C(CNCCN)CNCCN)CSSC[C@@H](C(=O)N[C@H](Cc2ccc(O)cc2)C(N)=O)NC1=O [[^99mTc]Tc-TECANT-2, metal not drawn]; 5.38 %ID/g

Attention now turns to another entry.
Returns the measured tissue uptake at 1 h for the input molecule. Input: C[C@@H](O)[C@@H]1NC(=O)[C@H](CCCCN)NC(=O)[C@@H](Cc2ccc(NC(N)=O)cc2)NC(=O)[C@H](Cc2ccc(O)cc2)NC(=O)[C@H](NC(=O)[C@H](Cc2ccc(Cl)cc2)NC(=O)C(CNCCN)CNCCN)CSSC[C@@H](C(=O)N[C@H](Cc2ccc(O)cc2)C(N)=O)NC1=O [[^99mTc]Tc-TECANT-1, metal not drawn] (X1-[Phe(4-Cl)][dC]Y[dPhe(4-NHCONH2)]KTC[dY]-NH2; disulfide 2-7)
3.13 %ID/g

###

Experiment: in vivo
Conditions: female, athymic nude-Foxn1nu/Foxn1+, mouse, 20 pmol, total radioactivity, Biodistribution Kidneys
Where a SMILES comes first, the peptide text is derived from it. Bridges are numbered along the chain shown (N, C = ends). [ ]: non-standard residue; d: D form. The star is where a group is joined. dPhe(4-NHCONH2) = NC(=O)Nc1ccc(C[C@@H](N)C(=O)O)cc1; Phe(4-Cl) = N[C@@H](Cc1ccc(Cl)cc1)C(=O)O; X1 = NCCNCC(CNCCN)C(=O)*
Measurement type: tissue uptake at 1 h (%ID/g)
Respond with the bare value in %ID/g.

C[C@@H](O)[C@@H]1NC(=O)[C@H](CCCCN)NC(=O)[C@@H](Cc2c[nH]c3ccccc23)NC(=O)[C@H](Cc2ccc(O)cc2)NC(=O)[C@H](NC(=O)[C@H](Cc2ccc(Cl)cc2)NC(=O)C(CNCCN)CNCCN)CSSC[C@@H](C(=O)N[C@H](Cc2ccc(O)cc2)C(N)=O)NC1=O [[^99mTc]Tc-TECANT-2, metal not drawn]; 43.6

Attention now turns to another entry.
Returns the measured tissue uptake at 1 h for the input compound. Input: C[C@@H](O)[C@@H]1NC(=O)[C@H](CCCCN)NC(=O)[C@@H](Cc2ccc(NC(N)=O)cc2)NC(=O)[C@H](Cc2ccc(O)cc2)NC(=O)[C@H](NC(=O)[C@H](Cc2ccc(Cl)cc2)NC(=O)C(CNCCN)CNCCN)CSSC[C@@H](C(=O)N[C@H](Cc2ccc(O)cc2)C(N)=O)NC1=O [[^99mTc]Tc-TECANT-1, metal not drawn] (X1-[Phe(4-Cl)][dC]Y[dPhe(4-NHCONH2)]KTC[dY]-NH2; disulfide 2-7)
16.3
